Tested on: Rattus norvegicus
Test: AUC (0-480 mins) in Wistar rat at 10 mg/kg, po
Format: ADME, organism-based, Plasma
Parameters: time < 8 hr, dose 10 mg/kg, route oral
Settings: in vivo, 8 h
PROPERTY: AUC
Remember to quote the unit after the number.

Measured AUC, `CCN(CC)c1ccc2nc3ccc(N(CC)CC)cc3[o+]c2c1.[Cl-]` : 690 ng·h/mL

###

Test: Ratio of EC50 for rat L6 cells to EC50 for Plasmodium falciparum K1
Assay type: functional
PROPERTY: Ratio

Short answer for CCN(CC)CCCC(C)Nc1ccnc2cc(Cl)ccc12 (stereo unspecified) : Ratio was 32

For reference, reported Ratio for `CN1CCN(c2cc(O)c3nc4ccc(=[N+](C)C)cc-4oc3c2)CC1.[Cl-]` stands at 440

Query `CN(C)c1ccc2nc3ccc(=[N+](C)C)cc-3oc2c1.[Cl-].[Cl][Zn][Cl]` yields Ratio of 700

# compound `C[N+](C)=c1ccc2nc3ccc(N4CCNCC4)cc3oc-2c1.[Cl-]` ; its Ratio = 2300

Lab book: Ratio of `CN1CCN(c2cc(OC(=O)C(C)(C)C)c3nc4ccc(=[N+](C)C)cc-4oc3c2)CC1.[Cl-]` noted as 160

`CCCCN(CCCC)c1ccc2nc3ccc(=[N+](CC)CC)cc-3oc2c1.[Cl-]` yielded Ratio of 350
